assay: NCI Yeast Anticancer Drug Screen. Data for the cln2 rad14 strain (AID 165); conditions: S. cerevisiae cln2 rad14 strain, at 50.0 µM, stronger effect = higher value
This is part of a sample that, as a whole, favours compounds with a hit. Of some 79,000 tested, about 15% had one in any assay.
Quick rule: growth inhibition of at least 20% means fulfilled, below that means not fulfilled.

COP(=O)(OC)OC.COP(=O)(OC)OC.COP(=O)(OC)OC.COP(=O)(OC)OC.COP(=O)(OC)OC.COP(=O)(OC)OC.[Mn+2].[O-][Cl+3]([O-])([O-])O: not fulfilled
CCOP1(=S)NNP(=S)(OCC)NN1 (stereo not given): not fulfilled
CC[PH+](CC)CC.[Cl][Au]: fulfilled
CCCCCCCCN1CCN(CCCCCCCC)C2CCCCC21 (stereo not given) (tested in a mixture with another compound): fulfilled

Here is another compound to look at.
In: Given [Mg]=[Se] , state whether its growth inhibition is at least 20%.
Out: not fulfilled
